# credit: PubChem BioAssay (NCI)

- Tested on: COLO 205 colon
- METHOD: NCI tumour cell line growth inhibition, 48 h
READOUT: TGI

// solved cases for TGI follow
INSERT INTO results (compound, measured_on, recorded_result) VALUES
  ('C1CN2N3CCCC23C1 (stereo unspecified)', 'COLO 205 colon', '> 100 µM'),
  ('CC1=C(CCCOC(=O)NCCCl)C2=C(C)C3(CC3)[C@@](C)(O)C(=O)C2=C1', 'COLO 205 colon', '6.65 µM'),
  ('CCOc1ccc(N=C/C=C(\Cl)c2ccc3ccccc3c2)cc1', 'COLO 205 colon', '37.7 µM');

Field TGI (COLO 205 colon), entry NS(=O)(=O)c1ccc(-n2nc(-c3ccc(Br)cc3)ccc2=O)cc1 : > 10 µM

Field TGI (COLO 205 colon), entry COc1cccc(-c2nc(-c3cnccn3)n(Cc3ccccc3)n2)c1 : > 100 µM

Field TGI (COLO 205 colon), entry O=C(O)c1ccc(NS(=O)(=O)Cc2ccccc2)cc1 : > 100 µM

Field TGI (COLO 205 colon), entry COC(=O)c1c2c(c(C)[n+]([O-])c1C)C(=O)C=CC2=O : 3.35 µM

Field TGI (COLO 205 colon), entry O=C(O)/C=C/C(=O)Nc1ncn[nH]1 : > 100 µM

Field TGI (COLO 205 colon), entry CN(C)c1ccc(/C=C2\C[N+](C)(C)C/C(=C\c3ccc(N(C)C)cc3)C2=O)cc1 : 8.36 µM

Field TGI (COLO 205 colon), entry O=c1c2cc(I)ccc2[nH]c(=S)n1Cc1ccccc1 : > 100 µM

Field TGI (COLO 205 colon), entry Cc1c(N2C(=O)/C(=C\c3ccccc3O)N=C2c2ccccc2)c(=O)n(-c2ccccc2)n1C : > 100 µM

* * *

- System: LOX IMVI melanoma
- METHOD: NCI tumour cell line growth inhibition, 48 h
This section presents compounds with their documented TGI values.

// solved cases for TGI follow
INSERT INTO results (structure_string, recorded_result) VALUES
  ('N#CC(C#N)=C1CCCS(=O)(=O)c2ccccc21', '> 100 µM'),
  ('CN1CN(c2ccccc2)C2(CCN(CCCC3(c4cccs4)OCCO3)CC2)C1=O', '> 100 µM'),
  ('CCCCn1/c(=N/C(=S)N(C)C)ss/c1=N\C(=S)N(C)C', '> 100 µM'),
  ('O=C(O)/C=C/C(=O)Nc1ncn[nH]1', '> 100 µM'),
  ('C[C@]12CC/C(=N\O)C=C1CC[C@@H]1[C@@H]2CC[C@]2(C)C(=N/O)/C(=C/c3cccnc3)C[C@@H]12', '9.74 µM');

Briefly, TGI measured for Cc1oc2nc(N(C)C)n3nnnc3c2c1C : > 100 µM

Briefly, TGI measured for CC1=CC(=O)N(n2c(C)n[nH]c2=O)C1=O : > 100 µM

Briefly, TGI measured for O=C(/C=C(\[O-])c1ccccc1)CCCCCCC(=O)/C=C(\[O-])c1ccccc1.O=C(/C=C(\[O-])c1ccccc1)CCCCCCC(=O)/C=C(\[O-])c1ccccc1.O=C(/C=C(\[O-])c1ccccc1)CCCCCCC(=O)/C=C(\[O-])c1ccccc1.[La+3].[La+3] : > 50 µM

Briefly, TGI measured for O=C(O)c1cc(S(=O)(=O)N=NC=C2c3ccccc3N(O)c3ccccc32)ccc1O : 26 µM
